Source: ChEMBL document CHEMBL1128086

- SYSTEM UNDER TEST: Prothrombin (Homo sapiens) (UniProt P00734)
- TEST: In vitro inhibitory potency against human alpha-thrombin
Item-by-item account of K ass

Observe how each entry below is paired with its result.
NC(N)=NCCC[C@@H](C=O)NC(=O)[C@@H]1CCCN1C(=O)[C@H](N)Cc1ccccc1; 5.4e+08 l M-1
NC(N)=NCCCCCNC(=O)[C@@H]1CCCN1C(=O)[C@H](N)Cc1ccccc1; 1.3e+06 l M-1
CN[C@H](Cc1ccccc1)C(=O)N1CCC[C@H]1C(=O)NCCCCN=C(N)N; 2.4e+06 l M-1
CN[C@H](Cc1ccccc1)C(=O)N1CCC[C@H]1C(=O)N[C@H](C=O)CCCNC(=N)N; 4.6e+08 l M-1
NC(N)=NCCCCCCNC(=O)[C@@H]1CCCN1C(=O)[C@H](N)Cc1ccccc1; 24000 l M-1
NC(N)=NCCCNC(=O)[C@@H]1CCCN1C(=O)[C@H](N)Cc1ccccc1; 1.4e+06 l M-1

Now take the following compound into account.
q: Name the recorded K ass for NC(N)=NCCCCNC(=O)C1CCCN1C(=O)[C@H](N)Cc1ccccc1 (some centres not stated) .
a: 5.5e+06 l M-1

* * *

- SYSTEM UNDER TEST: Serine protease 1 (Homo sapiens) (UniProt P07477)
- Sequence (P07477 whole entry): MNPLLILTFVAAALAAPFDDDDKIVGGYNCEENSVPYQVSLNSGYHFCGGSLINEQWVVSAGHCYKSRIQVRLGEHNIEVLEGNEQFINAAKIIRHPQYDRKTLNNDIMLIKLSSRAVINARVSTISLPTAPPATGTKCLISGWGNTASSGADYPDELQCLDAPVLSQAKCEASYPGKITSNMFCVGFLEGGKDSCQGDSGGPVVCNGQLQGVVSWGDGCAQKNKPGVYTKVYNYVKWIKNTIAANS
- TEST: In vitro inhibitory potency against trypsin
Item-by-item account of K ass

Observe how each entry below is paired with its result.
NC(N)=NCCCNC(=O)[C@@H]1CCCN1C(=O)[C@H](N)Cc1ccccc1; 14000 l M-1
NC(N)=NCCCCNC(=O)C1CCCN1C(=O)[C@H](N)Cc1ccccc1 (some centres not stated); 170000 l M-1
NC(N)=NCCCCCCNC(=O)[C@@H]1CCCN1C(=O)[C@H](N)Cc1ccccc1; 600 l M-1
CN[C@H](Cc1ccccc1)C(=O)N1CCC[C@H]1C(=O)NCCCCN=C(N)N; 240000 l M-1
NC(N)=NCCC[C@@H](C=O)NC(=O)[C@@H]1CCCN1C(=O)[C@H](N)Cc1ccccc1; 1.1e+08 l M-1
CN[C@H](Cc1ccccc1)C(=O)N1CCC[C@H]1C(=O)N[C@H](C=O)CCCNC(=N)N; 8.8e+07 l M-1

Now take the following compound into account.
q: Name the recorded K ass for NC(N)=NCCCCCNC(=O)[C@@H]1CCCN1C(=O)[C@H](N)Cc1ccccc1 .
a: 2700 l M-1

* * *

- SYSTEM UNDER TEST: Plasminogen (Homo sapiens)
- TEST: In vitro inhibitory potency against plasmin
Item-by-item account of K ass

Observe how each entry below is paired with its result.
CN[C@H](Cc1ccccc1)C(=O)N1CCC[C@H]1C(=O)N[C@H](C=O)CCCNC(=N)N; 1.8e+06 l M-1
CN[C@H](Cc1ccccc1)C(=O)N1CCC[C@H]1C(=O)NCCCCN=C(N)N; 1100 l M-1
NC(N)=NCCC[C@@H](C=O)NC(=O)[C@@H]1CCCN1C(=O)[C@H](N)Cc1ccccc1; 1.4e+06 l M-1

Now take the following compound into account.
q: Name the recorded K ass for NC(N)=NCCCCNC(=O)C1CCCN1C(=O)[C@H](N)Cc1ccccc1 (some centres undefined) .
a: 1200 l M-1

* * *

Item-by-item account of Ratio
- TEST: Selectivity ratio of thrombin Kass to plasmin Kass
Answer with a bare number; do not write a unit.

CN[C@H](Cc1ccccc1)C(=O)N1CCC[C@H]1C(=O)N[C@H](C=O)CCCNC(=N)N; 260
NC(N)=NCCCCNC(=O)C1CCCN1C(=O)[C@H](N)Cc1ccccc1 (stereo partly specified); 4600
CN[C@H](Cc1ccccc1)C(=O)N1CCC[C@H]1C(=O)NCCCCN=C(N)N; 2100

Now take the following compound into account.
q: Name the recorded Ratio for NC(N)=NCCC[C@@H](C=O)NC(=O)[C@@H]1CCCN1C(=O)[C@H](N)Cc1ccccc1 .
a: 390
